biological target: human PD-L1 (human) (UniProt Q9NZQ7); experiment: flow cytometry, transfected Expi293F cells
Sequence (Q9NZQ7 19-290): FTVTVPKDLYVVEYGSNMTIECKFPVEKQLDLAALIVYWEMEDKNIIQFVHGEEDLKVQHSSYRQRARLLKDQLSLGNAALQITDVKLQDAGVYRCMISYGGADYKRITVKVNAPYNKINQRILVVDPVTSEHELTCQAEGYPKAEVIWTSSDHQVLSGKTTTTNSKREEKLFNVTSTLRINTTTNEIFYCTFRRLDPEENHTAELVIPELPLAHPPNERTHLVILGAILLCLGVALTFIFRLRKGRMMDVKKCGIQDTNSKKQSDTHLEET
Each item that follows carries a reported MFI.
Lab note: jot down the number only; don't add units.

- BINDER: "CD80 R29D/Y31L/Q33H/K36G/M38I/T41A/M43R/M47T/L70Q/D76G/A91G/S103L/I118V/T120S/I127T/T130A ECD-Fc (Fc fusion) VIHVTKEVKEVATLSCGHNVSVEELAQTDILWHKEGKIVLAMRSGDTNIWPEYKNRTIFDITNNLSIVIQALRPSGEGTYECVVLKYEKDGFKREHLAEVTLLVKADFPTPSISDFEVPSSNIRRITCSASGGFPEPHLSWLENGEELNAINTTVSQDPETELYAVSSKLDFNMTTNHSFMCLIKYGHLRVNQTFNWNTTKQEHFPDN"
  MEASURE: "MFI"
  DATA VALUE: 3510
- BINDER: "CD80 C16S/H18L/R29D/Y31L/Q33H/K36G/M38I/T41A/M43R/M47T/E81V/L85R/K89N/A91T/F92P/K93V/R94L/T110A/I118V/H188D ECD-Fc (Fc fusion) VIHVTKEVKEVATLSSGLNVSVEELAQTDILWHKEGKIVLAMRSGDTNIWPEYKNRTIFDITNNLSIVILALRPSDEGTYVCVVRKYENDTPVLEHLAEVTLSVKADFPAPSISDFEVPTSNIRRIICSTSGGFPEPHLSWLENGEELNAINTTVSQDPETELYAVSSKLDFNMTTNHSFMCLIKYGDLRVNQTFNWNTTKQEHFPDN"
  MEASURE: "MFI"
  DATA VALUE: 4500
- BINDER: "CD80 R29D/Y31L/Q33H/K36G/M38I/T41A/M43R/M47T/L70Q/E81V/K89N/A91T/F92P/K93V/R94L/I118V/T120S/I127T/T130A ECD-Fc (Fc fusion) VIHVTKEVKEVATLSCGHNVSVEELAQTDILWHKEGKIVLAMRSGDTNIWPEYKNRTIFDITNNLSIVIQALRPSDEGTYVCVVLKYENDTPVLEHLAEVTLSVKADFPTPSISDFEVPSSNIRRITCSASGGFPEPHLSWLENGEELNAINTTVSQDPETELYAVSSKLDFNMTTNHSFMCLIKYGHLRVNQTFNWNTTKQEHFPDN"
  MEASURE: "MFI"
  DATA VALUE: 14200

Next, consider the following binder.
Dear colleague, I am looking for the recorded MFI of the following binder: CD80 Y53C/L70Q/D90G/T130A/N149D/N152T/H188D ECD-Fc (Fc fusion) VIHVTKEVKEVATLSCGHNVSVEELAQTRIYWQKEKKMVLTMMSGDMNIWPECKNRTIFDITNNLSIVIQALRPSDEGTYECVVLKYEKGAFKREHLAEVTLSVKADFPTPSISDFEIPTSNIRRIICSASGGFPEPHLSWLENGEELDAITTTVSQDPETELYAVSSKLDFNMTTNHSFMCLIKYGDLRVNQTFNWNTTKQEHFPDN
3290
